Numbers sourced from paper PMC11521914.

target: Glucose-6-phosphatase enzyme (G6Pase) (Rattus norvegicus, UniProt P43428)
Sequence (P43428 whole entry): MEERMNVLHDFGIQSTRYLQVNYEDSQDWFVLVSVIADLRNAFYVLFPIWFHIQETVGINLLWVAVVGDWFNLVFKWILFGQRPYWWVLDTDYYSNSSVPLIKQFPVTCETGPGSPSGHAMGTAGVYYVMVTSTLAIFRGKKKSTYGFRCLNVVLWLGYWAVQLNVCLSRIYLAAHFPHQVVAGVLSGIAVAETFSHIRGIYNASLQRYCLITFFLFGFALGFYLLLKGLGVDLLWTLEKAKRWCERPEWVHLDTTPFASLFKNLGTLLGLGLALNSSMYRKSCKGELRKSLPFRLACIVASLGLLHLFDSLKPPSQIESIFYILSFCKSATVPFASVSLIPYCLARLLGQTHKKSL

CHEMICAL_STRING: O=C(/C=C/c1ccc(O)c(O)c1)O[C@@H]1C[C@](O)(C(=O)O)C[C@@H](O)[C@H]1O
IC50 (µM): 346
